# TARGET_DESC: JAK2 (Homo sapiens, UniProt O60674)
# Construct: purchased Carna Biosciences
# Sequence (O60674 whole entry): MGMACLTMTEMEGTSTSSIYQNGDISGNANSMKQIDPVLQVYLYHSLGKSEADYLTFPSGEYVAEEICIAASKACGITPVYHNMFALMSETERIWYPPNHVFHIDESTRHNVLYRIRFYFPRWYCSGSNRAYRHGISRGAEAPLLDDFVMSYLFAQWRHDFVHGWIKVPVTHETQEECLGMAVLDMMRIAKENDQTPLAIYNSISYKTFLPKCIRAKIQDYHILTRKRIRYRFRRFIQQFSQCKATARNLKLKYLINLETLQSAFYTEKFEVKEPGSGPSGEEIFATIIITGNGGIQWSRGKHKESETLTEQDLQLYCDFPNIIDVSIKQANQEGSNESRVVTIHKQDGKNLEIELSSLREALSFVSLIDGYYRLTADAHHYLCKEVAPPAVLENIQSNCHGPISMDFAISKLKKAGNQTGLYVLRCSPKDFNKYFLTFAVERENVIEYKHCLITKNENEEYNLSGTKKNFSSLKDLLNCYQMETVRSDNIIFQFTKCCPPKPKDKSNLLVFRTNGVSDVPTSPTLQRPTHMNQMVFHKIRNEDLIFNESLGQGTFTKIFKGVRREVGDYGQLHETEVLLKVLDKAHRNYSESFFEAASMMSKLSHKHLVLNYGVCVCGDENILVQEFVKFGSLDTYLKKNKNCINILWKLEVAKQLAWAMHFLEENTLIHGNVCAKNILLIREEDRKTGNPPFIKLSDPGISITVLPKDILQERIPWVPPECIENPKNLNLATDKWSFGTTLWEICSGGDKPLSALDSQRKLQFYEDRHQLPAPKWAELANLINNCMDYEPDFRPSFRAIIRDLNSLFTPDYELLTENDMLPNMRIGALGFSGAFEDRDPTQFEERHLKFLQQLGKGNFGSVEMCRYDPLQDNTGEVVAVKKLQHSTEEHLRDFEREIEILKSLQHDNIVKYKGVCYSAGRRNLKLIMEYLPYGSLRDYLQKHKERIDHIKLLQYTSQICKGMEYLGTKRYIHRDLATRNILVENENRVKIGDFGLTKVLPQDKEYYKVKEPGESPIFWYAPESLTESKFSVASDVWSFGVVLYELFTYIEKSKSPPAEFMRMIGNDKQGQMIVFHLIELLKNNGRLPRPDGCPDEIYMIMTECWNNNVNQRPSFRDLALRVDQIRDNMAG
# PROTOCOL_NOTES: Off-chip Mobility Shift Assay (MSA) kinase inhibition
# Type: biochemical
# CONDITION_NOTES: inhibitor concentration 0.1 μM
MEASURED_PARAMETER: inhibition at 0.1 µM

Hi, could you look up inhibition at 0.1 µM for each item in my list?
1. CC(=O)CS(=O)(=O)Nc1ccc(F)c(C(=O)c2c[nH]c3ncc(-c4ccc(Cl)cc4)cc23)c1F
2. CC(O)CS(=O)(=O)Nc1ccc(F)c(C(=O)c2c[nH]c3ncc(-c4ccc(Cl)cc4)cc23)c1F (stereo not shown)
3. O=C(c1c(F)ccc(NS(=O)(=O)CC(O)CO)c1F)c1c[nH]c2ncc(-c3ccc(Cl)cc3)cc12 (stereo not shown)
4. O=C(c1c(F)ccc(NS(=O)(=O)CCCO)c1F)c1c[nH]c2ncc(-c3ccc(Cl)cc3)cc12

Out:
< 30%
< 30%
< 30%
> 50%
